System: ITE degradation in mouse plasma
Assay protocol: Inhibition of ITE degradation in mouse plasma by esterase inhibitors
Type: biochemical
Assay setup: mouse plasma; 1 millimolar benzil, BNPP and tacrine, 0.5 millimolar rivastigmine; pre-incubated 60 minutes
Recorded metric: inhibition of ITE degradation (in words, rank)

INSERT INTO measurements (compound, result) VALUES
  ('Nc1c2c(nc3ccccc13)CCCC2 [Tacrine, tacrine]', 'weaker inhibitors'),
  ('O=[N+]([O-])c1ccc(OP(=O)(O)Oc2ccc([N+](=O)[O-])cc2)cc1 [BNPP, bis-para-nitrophenylphosphate]', 'weaker inhibitors');
